organism: Rattus norvegicus; experiment: DrugMatrix - Regimen: Daily Repeat; assay type: toxicity, organism-based, Sprague-Dawley; design: regimen Daily Repeat, gender Male, age 6-8 weeks; details: in vivo, po, 100 mg/kg, […], tissue Blood, route oral GAVAGE, dose level High, time 14 day, vehicle .5 % CMC
QUANTITY NAME: ABSOLUTE MONOCYTE
Write down the value, and be sure its unit follows.

Exam item: I'd like to know its ABSOLUTE MONOCYTE. The compound in question is CN(C)CCN(Cc1cccs1)c1ccccn1
Marked response: 390 cells/µL

* * *

species on record: Rattus norvegicus; assay: DrugMatrix - Regimen: Daily Repeat; assay type: toxicity, organism-based, Sprague-Dawley; parameters: regimen Daily Repeat, gender Male, age 6-8 weeks; settings: in vivo, po, 0 mg/kg, 72 h, tissue Plasma, route oral GAVAGE, dose level Control, time 3 day, […]
Measured ASPARTATE AMINOTRANSFERASE accompanies every entry in the list below.
// return numeric value only (unit: u/L, not printed)

// known answers, use as guide
CCCCC(=O)N(Cc1ccc(-c2ccccc2-c2nnn[nH]2)cc1)[C@H](C(=O)O)C(C)C    87.5
CC(=O)Oc1ccccc1C(=O)O [ASPIRIN]    90.83
CS(=O)(=O)Nc1ccc([N+](=O)[O-])cc1Oc1ccccc1 [NIMESULIDE]    101

Exam item: // ASPARTATE AMINOTRANSFERASE lookup, key: CCc1ccc(CCOc2ccc(CC3SC(=O)NC3=O)cc2)nc1 (centres undefined) [PIOGLITAZONE]
Marked response: 96.5

Exam item: # input compound: CC(C)c1c(C(=O)Nc2ccccc2)c(-c2ccccc2)c(-c2ccc(F)cc2)n1CC[C@@H](O)C[C@@H](O)CC(=O)O [ATORVASTATIN] ; wanted: its ASPARTATE AMINOTRANSFERASE
Marked response: 83.5

Exam item: Return reported ASPARTATE AMINOTRANSFERASE; argument: Cc1ccc(C)c(OCCCC(C)(C)C(=O)O)c1 [GEMFIBROZIL]
Marked response: 77.67

Exam item: Could you tell me which ASPARTATE AMINOTRANSFERASE is on file for c1ccoc1 [FURAN] ?
Marked response: 81.5

Exam item: Quick one: ASPARTATE AMINOTRANSFERASE of ClC(Cl)(Cl)Cl [CARBON TETRACHLORIDE] ?
Marked response: 90.5

Exam item: State the recorded ASPARTATE AMINOTRANSFERASE for this entry: O=c1c(-c2ccc(O)cc2)coc2cc(O)cc(O)c12 [GENISTEIN]
Marked response: 83.5
